System: OVCAR-8
Assay: NCI tumour cell line growth inhibition, 48 h
Active and inactive are the calls of the source. Rule as the data show it: active = GI50 up to about 1.1 µM and inactive = higher.
For each record, write down the corresponding GI50.

Per the reported OVCAR-8 data, `C/C(=N/NC(=O)CC(=O)N(C(=O)c1ccccc1Cl)c1ccc(C)cc1)c1cc2ccccc2oc1=O` has GI50 of > 100 µM (inactive)

Per the reported OVCAR-8 data, CC(=O)OC12CCCCC1C1(CCCC1)NC2=O (configuration not stated) has GI50 of > 100 µM (inactive)

Per the reported OVCAR-8 data, `Cc1sc2ccccc2[n+]1CCC(=O)O` has GI50 of > 100 µM (inactive)

Per the reported OVCAR-8 data, `CCOC(=O)CC1=Nc2ccccc2SC1` has GI50 of > 100 µM (inactive)

Per the reported OVCAR-8 data, CN1CN(C2OC(CO)C(O)C2O)c2nc(N)[nH]c(=O)c21 (configuration not stated) has GI50 of > 100 µM (inactive)

Per the reported OVCAR-8 data, `N/N=c1/nc2n(c3ncccc13)C=CNN2` has GI50 of > 100 µM (inactive)

Per the reported OVCAR-8 data, CC(=O)OCC12C(=O)C[C@@H](C)C3(CC(c4ccoc4)OC3=O)C1CCC(OC(C)=O)C21CO1 (some centres not stated) has GI50 of > 100 µM (inactive)

Per the reported OVCAR-8 data, `Cc1nc(C)c(C(=O)NNC(=O)C[N+](C)(C)C)cc1C(=O)NNC(=O)C[N+](C)(C)C` has GI50 of > 100 µM (inactive)

Per the reported OVCAR-8 data, CC1=NN(c2nc(N)nc(/C(C#N)=C\C3COc4ccccc4C3=O)n2)C(C)(C)C1 (configuration not stated) has GI50 of 25.6 µM (inactive)

Per the reported OVCAR-8 data, `CCSc1nnc(CSc2nc(-c3ccccc3)c(-c3ccccc3)[nH]2)n1-c1ccccc1` has GI50 of 21.6 µM (inactive)

Per the reported OVCAR-8 data, `COc1ccc(CSC2=C(C#N)C(=O)NC3(CCCCC3)S2)cc1` has GI50 of > 59.3 µM (inactive)

Per the reported OVCAR-8 data, `O=C1c2cc3c(cc2CC12Cc1cc4c(cc1C2)CCC4)CCC3` has GI50 of > 100 µM (inactive)

Per the reported OVCAR-8 data, `O=C1c2ccccc2C(=O)c2c1c1cc(O)ccc1n2Cc1ccc(Cl)cc1Cl` has GI50 of 4.57 µM (inactive)

Per the reported OVCAR-8 data, COc1ccc(C(C2=C(O)COC2=O)c2cc3c(cc2O)OCO3)cc1OC (configuration not stated) has GI50 of > 100 µM (inactive)

Per the reported OVCAR-8 data, COc1nc2c(c(=O)[nH]1)N=C(c1ccc(Cl)cc1)CC(c1ccccc1)N2 (configuration not stated) has GI50 of 21.2 µM (inactive)

Per the reported OVCAR-8 data, `NS(=O)(=O)c1nnc(NC(=O)C23CC4CC(CC(C4)C2)C3)s1` has GI50 of > 100 µM (inactive)

Per the reported OVCAR-8 data, CCOC(=O)c1csc(NC(=O)C(C)N2CCCC2)n1 (configuration not stated) has GI50 of > 100 µM (inactive)

Per the reported OVCAR-8 data, `C=C(C)c1cc(C(C)(C)C)cc(C(=C)C)c1S(C)(=O)=O` has GI50 of > 100 µM (inactive)

Per the reported OVCAR-8 data, CCOP(=O)(OCC)C(Cc1cn(S(=O)(=O)c2ccc(C)cc2)cn1)C(=O)O (configuration not stated) has GI50 of > 100 µM (inactive)

Per the reported OVCAR-8 data, `Cc1cn([C@H]2[C@@H](CO)C[C@H]2O)c(=O)[nH]c1=O` has GI50 of > 100 µM (inactive)

Per the reported OVCAR-8 data, `NC1=NS(=O)(=O)Nc2nc(-c3ccc([N+](=O)[O-])cc3)[nH]c21` has GI50 of > 100 µM (inactive)

Per the reported OVCAR-8 data, `CCc1[nH]c(=O)c2oc3cc4ccccc4cc3c2c1C(=O)O` has GI50 of > 10 µM (inactive)
